system: HT-29; experiment: NCI tumour cell line growth inhibition, 48 h
Active and inactive are the calls of the source. Cut-off read from the data, not from the text of the source: active = GI50 up to about 1.1 µM and inactive = higher.
Thanks in advance; please answer with one of these: active, inactive

Compound: OC1(c2cc3ccccc3s2)CCCCC1
System: HT-29
Label Class: inactive
//
Compound: CC(C)Cc1ccc(C(C)/C=C2\CCC(CN3CCCCC3)C2=O)cc1 (centres undefined)
System: HT-29
Label Class: inactive
//
Compound: COc1ccc2c3c(c4cc(OC)c(OC)cc4c2c1)CN1CCC[C@H]1[C@@H]3O
System: HT-29
Label Class: active
//
Compound: COCCN1C2=CCCCC2=Nc2c1nc(N)[nH]c2=O
System: HT-29
Label Class: inactive
//
Compound: N#CC1=C(N)OC(c2ccc([N+](=O)[O-])cc2)C1(C#N)C#N (centres undefined)
System: HT-29
Label Class: inactive

Assay outcome for COc1cccc2c1C(=O)c1c(O)c3c(c(O)c1C2=O)CC(O)(C(=O)CO)CC3OC1CC(N)C(I)C(C)O1 (centres undefined) : what was it? inactive

Assay outcome for COc1ccc(/C=C\c2cc(OC)c(O[Si](C)(C)C(C)(C)C)c(OC)c2)cc1 : what was it? inactive

Assay outcome for O=C(O)CSc1nnc2c3ccccc3c3ccccc3c2n1 : what was it? inactive

Assay outcome for CCCCCCCCOC(=O)C12Oc3ccc(-c4ccc5c(c4O)C(=O)C4=C(O)CC(C)C(O)C4(C(=O)OCCCCCCCC)O5)c(O)c3C(=O)C1=C(O)CC(C)C2O (centres undefined) : what was it? inactive
